assay: Induction of nociception in Swiss mouse at 2 ug, I.PL incubated for 180 mins by von frey test relative to control; assay type: toxicity; settings: in vivo, other, 3 h, at 2 µg
Provide the reported Activity of each item.
Give bare numbers, in %.

Provide the reported Activity of each entry below, same order.
1. H-DEGPKSDCKP-OH
2. H-AEIDFSGIPEDIIKQI-OH

[71, 71]

Provide the reported Activity of each entry below, same order.
1. H-KETNAKPPA-OH
2. H-ILTGKLKCK-OH

71
41

====

Provide the reported Activity of each item.
test: Effect on rearing activity in Swiss mouse assessed as increase in frequency at 2 ug, I.PL incubated for 3 to 15 mins by open field test relative to control; type: toxicity; details: in vivo, other, at 2 µg, time 3-15 min
Give bare numbers, in %.

>>> numeric_readout("H-DEGPKSDCKP-OH")
41

Item under review: "H-KPVEPVG-OH" . Reported Activity?
41

====

experiment: Effect on rearing activity in Swiss mouse assessed as increase in frequency at 2 ug, I.PL incubated for 3 to 15 mins by open field test relative to control; assay type: toxicity; details: in vivo, other, at 2 µg, time 3-15 min
QUANTITY KIND: Activity

>>> result("H-AEIDFSGIPEDIIKQI-OH")
"<= 40%"
>>> result("H-SESNTCG-OH")
"<= 40%"
>>> result("H-KETNAKPPA-OH")
"<= 40%"

Each recorded value in this set is attributed to ChEMBL document CHEMBL5344445.
